Reported values of TGI for individual entries
System: HCT-15 colon
Assay: NCI tumour cell line growth inhibition, 48 h

1) CC1[C@@H]2C[C@@H]3O[C@@]34[C@H]3CCC5Cc6nc7c(nc6C[C@@]5(C)C3(O)CC(=O)[C@@]24CO[C@]12OC(C)(C)CC2O)CC1CC[C@@H]2C3=C[C@H]4O[C@@]5(O[C@@](C)(CO)C[C@@H]5O)C(C)[C@@]4(O)[C@]3(C)[C@@H](O)CC2[C@]1(C)C7 (some centres not stated) : 2.66 µM
2) [O-][n+]1cc(SCc2ccccc2)ncc1SCc1ccccc1 : > 10 µM
3) C[S+](C)C1(c2ccccc2)C(=O)c2ccccc2C1=O : > 100 µM
4) Cc1cc(S(=O)(=O)Nc2n[nH]c(N)n2)c(S)cc1Cl : > 10 µM
5) c1ccc2c(Nc3ccc4c(c3)OCO4)c3ccoc3nc2c1 : 45.6 µM
6) COc1ccc(OC)c([N+](=O)[O-])c1-c1nc2sc(C)cn2c1/C=N/N=C(N)N : > 100 µM
7) CCN(CC)Cc1cc(Nc2c3ccc(Cl)cc3nc3c(C)cccc23)ccc1O : 2.87 µM
8) COc1ccc(C2CCc3c(cnc4nc(N)nc(N)c34)C2)cc1 (configuration not stated) : > 100 µM

What does the data say about its TGI? Entry: CC(C(=O)C(C)O[Si](c1ccccc1)(c1ccccc1)C(C)(C)C)=P(c1ccccc1)(c1ccccc1)c1ccccc1 (configuration not stated)
18.8 µM

Please do the same for COc1ccc2c(-c3csc(-c4c[nH]c5ccccc45)n3)c[nH]c2c1 as well.
> 100 µM

Please do the same for Cc1ccc(S(=O)(=O)N/N=C/CN2C(=O)c3ccccc3C2=O)cc1 as well.
> 100 µM

Please do the same for CCOC(=O)CCC1(C(=O)O[C@@H]2C[C@H](C)CC[C@H]2C(C)C)CCCCC1=O (some centres not stated) as well.
> 100 µM

Please do the same for CO/C=C(/C(=O)OC)c1ccccc1[C@H]1C[C@@H]1c1ccccc1 as well.
86.8 µM

Please do the same for O=C(O)CCC(NC(=O)/C(=C/c1ccccc1)NC(=O)c1ccccc1)C(=O)O (configuration not stated) as well.
> 100 µM

Please do the same for CC(=O)OC1COC(n2c(N)c(C#N)c(-c3ccccc3)c(C#N)c2=S)C(OC(C)=O)C1OC(C)=O (configuration not stated) as well.
> 100 µM

Please do the same for COC1OC(=O)C(OC)C(OC)C1OC (configuration not stated) as well.
> 100 µM

Please do the same for O=C(O)c1ccccc1/C=C1/Nc2ccccc2C1=O as well.
> 100 µM

====

System: ACHN renal
Experiment: NCI tumour cell line growth inhibition, 48 h
Reported values of GI50 for individual entries

These solved cases illustrate the format of a correct answer.
1) c1ccc(-c2nn(-c3ccccc3)[n+](-c3ccccc3-c3ccccc3)n2)cc1 : 5.38 µM
2) Cc1c(-c2ccnc(N)n2)c2c(n1-c1ccccc1)C(=O)c1ccccc1C2=O : 19.6 µM
3) Cn1cc(C2=C(c3cn(C)c4cc(Cl)ccc34)C(=O)NC2=O)c2ccccc21 : 0.181 µM
4) CC(=O)O[C@H]1Cc2c([nH]c3ccccc23)[C@@H](c2ccc(Cl)cc2)N1C(=O)CCNC(C)(C)C : 4.13 µM

What does the data say about its GI50? Entry: CC[C@@]1(O)C(=O)N(CCN(C)C)Cc2c1cc1n(c2=O)Cc2cc3ccccc3nc2-1
4.31 µM

====

Reported values of TGI for individual entries
Tested on: SK-OV-3 ovarian
Assay: NCI tumour cell line growth inhibition, 48 h
*1 amine or outer side, *2 acyl side, *3 side chain or, on linkers, in order; H or OH if unused. Where a SMILES comes first, the peptide text is derived from it. [ ]: non-standard residue; d: D form. The star is where a group is joined. X12 = NCCCCC(N[*:1])C(=O)CN1CCCC1C(=O)[*:2]; Pentadecanoyl = CCCCCCCCCCCCCCC(=O)*

These solved cases illustrate the format of a correct answer.
1. CC1C/C(=C\c2ccc(O)c(O)c2)C(=O)/C(=C/c2ccc(O)c(O)c2)C1 (configuration not stated) : 53.1 µM
2. Cn1c(-c2cccs2)cc(-c2ccsc2)c1-c1ccsc1 : > 100 µM

What does the data say about its TGI? Entry: Cc1nc2ccccc2nc1N1CCCC1
> 100 µM

Please do the same for CCCCCCCCCCCCCCC(=O)NC(CCCCN)C(=O)CN1CCCC1C(=O)NCC(=O)NC(Cc1ccccc1)C(=O)N1CCCC1C(=O)NC(CO)C(=O)NC(Cc1ccc(O)cc1)C(=O)NC(CCCCN)C(=O)NC(CC(C)C)C(=O)NC(CCCN=C(N)N)C(=O)N1CCCC1C(=O)NCC(N)=O (configuration not stated) (Pentadecanoyl-[X12]GFPSYKLRPG-NH2; configuration not given here) as well.
43.4 µM

Please do the same for COC1OC(=O)C(OC)C(OC)C1OC (configuration not stated) as well.
> 100 µM

Please do the same for CN(C)/C=C/C(=O)c1cccc(C(=O)/C=C/N(C)C)n1 as well.
> 100 µM

Please do the same for Fc1sc2c(c1F)C1CCC2C1 (configuration not stated) as well.
> 100 µM

====

Tested on: DLD-1 colon
Assay: NCI tumour cell line growth inhibition, 48 h
PARAMETER_MEASURED: TGI

These solved cases illustrate the format of a correct answer.
1. O=C1CCC(=O)C(C(=O)CCC(=O)Nc2ccc(Cl)cc2)C1 (centres undefined) : > 100 µM
2. Cc1cccc2c1C(=O)OC2(c1cccc2ccccc12)c1cccc2ccccc12 : > 100 µM
3. CN(C)CC(C)(C)C(=O)/C=C/c1ccccc1 : 74.3 µM
4. COC(=O)C1=C(c2cc(OC)c(OC)c(OC)c2)OC(c2cc(OC)c(OC)c(OC)c2)C1 (centres undefined) : > 100 µM
5. CCCN(CCC)c1c([N+](=O)[O-])cc(C(N)=O)cc1[N+](=O)[O-] : > 100 µM
6. O=[N+]([O-])C1(CO)COC2(OC1)c1ccccc1-c1ccccc12 : > 89.1 µM
7. O=C(/C=C/c1ccc(OCCCOc2ccc(/C=C/C(=O)c3ccc(Cl)cc3)cc2)cc1)c1ccc(Cl)cc1 : > 100 µM
8. COC(=O)C([O][Ge]([CH3])([CH3])[CH3])c1ccccc1 (centres undefined) : > 100 µM

// lookup TGI | system=DLD-1 colon | key= CC(C(=O)C(C)O[Si](c1ccccc1)(c1ccccc1)C(C)(C)C)=P(c1ccccc1)(c1ccccc1)c1ccccc1 (centres undefined)
14.9 µM

Please do the same for CC(C)S(=O)(=O)ON1C(=O)c2ccc([N+](=O)[O-])cc2C1=O as well.
> 100 µM

Please do the same for C/C(=N/OCCC(=O)O)C1CC1 as well.
> 100 µM

Please do the same for CC1(C)CC(=O)C=C(NC(=O)c2ccccc2)C1 as well.
> 100 µM

Please do the same for CCC(C)Cn1c(C)nc2c1C(=O)c1ccccc1C2=O (centres undefined) as well.
> 100 µM

Please do the same for O=C(O)CSc1nnc(COc2ccccc2)n1-c1ccccc1 as well.
> 100 µM

====

Tested on: UACC-62 melanoma
Assay: NCI tumour cell line growth inhibition, 48 h; in the data active = GI50 below about 0.43 µM; inactive = the rest
The reply should name one outcome from 1 (yes) (active), 0 (no) (inactive)

1) N#CSc1cc(-c2nc3ccccc3o2)ccc1N : 0 (no)
2) COC(=O)C1=C(C)NC(C)=C(C(=O)OC)C1c1ccccc1[N+](=O)[O-] : 0 (no)

How did this test come out for COC(=O)[C@@H](C)C[C@H](Cc1ccccc1)NC(=O)c1csc([C@@H](C[C@H](C(C)C)N(C)C(=O)[C@@H](NC(=O)CN(C)C)C2CC2)OC(C)=O)n1 ?
1 (yes)

Please do the same for COc1cc(C2CC(c3cc(Cl)c(C)cc3O)=NN2c2ccc(S(N)(=O)=O)cc2)cc(OC)c1OC (stereo not drawn) as well.
0 (no)

Please do the same for CCCCOc1nc2ccccc2cc1C1CNC(=O)c2ccccc2N1 (stereo not drawn) as well.
0 (no)

Please do the same for C[C@@H]1CC[C@H]2C(CN(C)CC3=C(C(F)(F)F)O[C@@H]4O[C@@]5(C)CC[C@H]6[C@H](C)CC[C@@H]3[C@@]46OO5)=C(C(F)(F)F)O[C@@H]3O[C@@]4(C)CC[C@@H]1[C@]32OO4 as well.
0 (no)

Please do the same for Nc1ccc(Sc2ccc3c4c2cccc4c(=O)n2c4ccccc4nc32)cc1 as well.
0 (no)

Please do the same for COc1ccc(OC)c(/C=C/C(=O)c2ccc(SC)cc2)c1 as well.
0 (no)

====

Test system: BT-549 breast
Assay: NCI tumour cell line growth inhibition, 48 h
PARAMETER_MEASURED: GI50

These solved cases illustrate the format of a correct answer.
1) COc1cc(C2CC(c3cc(Cl)c(C)cc3O)=NN2c2ccc(S(N)(=O)=O)cc2)cc(OC)c1OC (centres undefined) : 2600 nM
2) COc1ccc(C(=O)C(CN(C)C)c2ccccc2)cc1 (centres undefined) : 1760 nM
3) CCOC(=O)Nc1ccc2nc(Sc3ccc(Cl)cc3)sc2c1 : 11600 nM

What does the data say about its GI50? Entry: CCc1cc(Nc2nccc(-c3c(-c4ccc(OC)c(C(=O)Nc5c(F)cccc5F)c4)nc4ccccn34)n2)c(OC)cc1N1CCC(N2CCN(S(C)(=O)=O)CC2)CC1
> 100000 nM
